Attribution: ChEMBL document CHEMBL1154114

study.target: G-quadruplex DNA
experimental.protocol: Interaction with G-quadruplex DNA assessed by polymerase stop assay

input.smiles | study.target | IC50 / nM
N[C@@H]1CCN(c2c(F)cc3c(=O)c(C(=O)O)cn4c3c2Oc2c-4ccc3c2ccc2ccccc23)C1 | G-quadruplex DNA | 60
N[C@H]1CCN(c2c(F)cc3c(=O)c(C(=O)O)cn4c3c2Oc2c-4ccc3c2ccc2ccccc23)C1 | G-quadruplex DNA | 700

---

Tested on: HeLa
experimental.protocol: Inhibition of human HeLa cell proliferation assessed as bromodeoxyuridine incorporation during DNA synthesis after 48 hrs by ELISA
Format: functional, cell-based
pIC50: −log10 of the molar value.
endpoint.label: pIC50

molecule | endpoint.label | quantitative.readout
O=C(O)c1cn(C2CC2)c2cc(N3CCNCC3)c(F)cc2c1=O [CIPROFLOXACIN] | pIC50 | 3.10
COc1c(N2C[C@@H]3CCCN[C@@H]3C2)c(F)cc2c(=O)c(C(=O)O)cn(C3CC3)c12 [MOXIFLOXACIN] | pIC50 | 3.49

---

List of pIC50 values.
experimental.protocol: Inhibition of mouse NIH/3T3 cell proliferation by MTT assay
Type: cell-based
measurement.conditions: NIH3T3
pIC50: −log10 of the molar value.
endpoint.label: pIC50

molecule | endpoint.label | qualifying.sign | quantitative.readout
O=C(O)c1cn(C2CC2)c2cc(N3CCNCC3)c(F)cc2c1=O [CIPROFLOXACIN] | pIC50 | < | 3.00
C[C@@H]1CN(c2c(F)c(N)c3c(=O)c(C(=O)O)cn(C4CC4)c3c2F)C[C@H](C)N1 [SPARFLOXACIN] | pIC50 | = | 3.91
CCn1cc(C(=O)O)c(=O)c2cc(F)c(N3CCNCC3)cc21 [NORFLOXACIN] | pIC50 | < | 3.00
CCn1cc(C(=O)O)c(=O)c2cc(F)c(N3CCNC(C)C3)c(F)c21 (centres undefined) [LOMEFLOXACIN] | pIC50 | = | 3.32

---

Tested on: MC3T3-E1
experimental.protocol: Inhibition of mouse MC3T3-E1 cell proliferation after 48 to 72 hrs
Type: functional, cell-based
Measured IC50 accompanies every entry in the list below.
endpoint.label: IC50

input.smiles | endpoint.label | result
O=C(O)c1cn(C2CC2)c2cc(N3CCNCC3)c(F)cc2c1=O | IC50 | 120 µM
N[C@@H]1[C@H]2CN(c3nc4c(cc3F)c(=O)c(C(=O)O)cn4-c3ccc(F)cc3F)C[C@@H]12 | IC50 | < 1.2 µM
C[C@H]1COc2c(N3CCN(C)CC3)c(F)cc3c(=O)c(C(=O)O)cn1c23 | IC50 | 220 µM

---

experimental.protocol: Stability in phosphate buffer of pH 7.4 after 6 days
Format: physicochemical
measurement.conditions: read-out: Stability
Examples of compounds with documented remaining at 144 h follow.

input.smiles | qualifying.sign | remaining at 144 h (%)
CCCCCCC(=O)N1CCN(c2cc3c(cc2F)c(=O)c(C(=O)O)cn3C2CC2)CC1 | = | 100
CCCCCCCCCCCCCCCC(=O)N1CCN(c2cc3c(cc2F)c(=O)c(C(=O)O)cn3C2CC2)CC1 | = | 100
O=C(O)c1cn(C2CC2)c2cc(N3CCN(C(=O)CCl)CC3)c(F)cc2c1=O | > | 99

---

Tested on: P388
experimental.protocol: Inhibition of mouse P388 cell proliferation
Format: functional, cell-based
endpoint.label: IC50 (nM)

compound | units.of.measure | quantitative.readout
NC1CCN(c2c(F)cc3c(=O)c(C(=O)O)cn4c3c2Oc2ccccc2-4)C1 (stereo unspecified) | nM | 50

---

Measured pIC50 by item
System: CHO
experimental.protocol: Inhibition of CHO cell proliferation by colony-forming assay
Type: cell-based
measurement.conditions: Cricetulus griseus
pIC50: −log10 of the molar value.

input.smiles | study.target | pIC50
O=C(O)c1cn(C2CC2)c2cc(-c3ccc(O)cc3)c(F)cc2c1=O | CHO | 4.70
O=C(O)c1cn(C2CC2)c2c(F)c(-c3ccc(O)cc3)c(F)cc2c1=O | CHO | 5.05

---

System: EJ
experimental.protocol: Inhibition of human EJ cell proliferation by MTT assay
Format: functional, cell-based
Listed here are compounds together with their documented IC50.
endpoint.label: IC50 (µM)

input.smiles | study.target | quantitative.readout
O=C(O)c1cn(C2CC2)c2cc(N3CCNCC3)c(F)cc2c1=O | EJ | 202
CCn1cc(C(=O)O)c(=O)c2cc(F)c(N3CCNCC3)nc21 | EJ | 178
CCn1cc(C(=O)O)c(=O)c2cc(F)c(N3CCNCC3)cc21 | EJ | 210

---

Test system: A-431
experimental.protocol: Inhibition of human A431 cell proliferation by MTT assay
Assay type: functional, cell-based
endpoint.label: IC50 (µM)

input.smiles | endpoint.label | quantitative.readout
O=C(O)c1cn(C2CC2)c2cc(N3CCNCC3)c(F)cc2c1=O | IC50 | 135
CCn1cc(C(=O)O)c(=O)c2cc(F)c(N3CCNCC3)nc21 | IC50 | 150
CCn1cc(C(=O)O)c(=O)c2cc(F)c(N3CCNCC3)cc21 | IC50 | 70

---

Some compounds, each annotated with its measured IC50.
System: MCF7
experimental.protocol: Antitumor activity against human MCF7 cells after 5 days by MTT assay
Type: functional, cell-based
measurement.conditions: MCF7, 120 h
endpoint.label: IC50 (µM)

input.smiles | study.target | quantitative.readout
CCCCC(=O)N1CCN(c2cc3c(cc2F)c(=O)c(C(=O)O)cn3C2CC2)CC1 | MCF7 | 316
CCCCCCCCCOC(=O)N1CCN(c2cc3c(cc2F)c(=O)c(C(=O)O)cn3C2CC2)CC1 | MCF7 | 35
CC(=O)N1CCN(c2cc3c(cc2F)c(=O)c(C(=O)O)cn3C2CC2)CC1 | MCF7 | 803
CCCCCCCCCCCCCC(=O)N1CCN(c2cc3c(cc2F)c(=O)c(C(=O)O)cn3C2CC2)CC1 | MCF7 | 96
CCCCCC(=O)OCC(=O)N1CCN(c2cc3c(cc2F)c(=O)c(C(=O)O)cn3C2CC2)CC1 | MCF7 | 72
CCCCCCCCCC(=O)N1CCN(c2cc3c(cc2F)c(=O)c(C(=O)O)cn3C2CC2)CC1 | MCF7 | 20
CCCCCCCCC(=O)OCC(=O)N1CCN(c2cc3c(cc2F)c(=O)c(C(=O)O)cn3C2CC2)CC1 | MCF7 | 255
O=C(O)c1cn(C2CC2)c2cc(N3CCN(C(=O)CO)CC3)c(F)cc2c1=O | MCF7 | 985
O=C(O)c1cn(C2CC2)c2cc(N3CCNCC3)c(F)cc2c1=O | MCF7 | 476
CCCCCCCCOC(=O)N1CCN(c2cc3c(cc2F)c(=O)c(C(=O)O)cn3C2CC2)CC1 | MCF7 | 23
CCCCCCCCCCCC(=O)N1CCN(c2cc3c(cc2F)c(=O)c(C(=O)O)cn3C2CC2)CC1 | MCF7 | 108
CC(=O)OCC(=O)N1CCN(c2cc3c(cc2F)c(=O)c(C(=O)O)cn3C2CC2)CC1 | MCF7 | 279
CCCCCCCC(=O)OCC(=O)N1CCN(c2cc3c(cc2F)c(=O)c(C(=O)O)cn3C2CC2)CC1 | MCF7 | 818
CCOC(=O)N1CCN(c2cc3c(cc2F)c(=O)c(C(=O)O)cn3C2CC2)CC1 | MCF7 | 455
O=C(O)c1cn(C2CC2)c2cc(N3CCN(C(=O)Cc4ccccc4)CC3)c(F)cc2c1=O | MCF7 | 32
O=C(O)c1cn(C2CC2)c2cc(N3CCN(C(=O)CCl)CC3)c(F)cc2c1=O | MCF7 | 23
CCCCCCC(=O)N1CCN(c2cc3c(cc2F)c(=O)c(C(=O)O)cn3C2CC2)CC1 | MCF7 | 754
CCCCOC(=O)N1CCN(c2cc3c(cc2F)c(=O)c(C(=O)O)cn3C2CC2)CC1 | MCF7 | 14
CCCCCCCCCC(=O)OCC(=O)N1CCN(c2cc3c(cc2F)c(=O)c(C(=O)O)cn3C2CC2)CC1 | MCF7 | 353
CCCCCCCCCCCC(=O)OCC(=O)N1CCN(c2cc3c(cc2F)c(=O)c(C(=O)O)cn3C2CC2)CC1 | MCF7 | 621
CCC(=O)N1CCN(c2cc3c(cc2F)c(=O)c(C(=O)O)cn3C2CC2)CC1 | MCF7 | 727
CCCC(=O)OCC(=O)N1CCN(c2cc3c(cc2F)c(=O)c(C(=O)O)cn3C2CC2)CC1 | MCF7 | 1000
CC(C)(C)C(=O)N1CCN(c2cc3c(cc2F)c(=O)c(C(=O)O)cn3C2CC2)CC1 | MCF7 | 85
CCCCCCCCCCC(=O)OCC(=O)N1CCN(c2cc3c(cc2F)c(=O)c(C(=O)O)cn3C2CC2)CC1 | MCF7 | 816
CCCCCCCCC(=O)N1CCN(c2cc3c(cc2F)c(=O)c(C(=O)O)cn3C2CC2)CC1 | MCF7 | 26
CCCCCCCCCCCCCCCC(=O)OCC(=O)N1CCN(c2cc3c(cc2F)c(=O)c(C(=O)O)cn3C2CC2)CC1 | MCF7 | 56
CCCCCCCCCCOC(=O)N1CCN(c2cc3c(cc2F)c(=O)c(C(=O)O)cn3C2CC2)CC1 | MCF7 | 20
CCCC(=O)N1CCN(c2cc3c(cc2F)c(=O)c(C(=O)O)cn3C2CC2)CC1 | MCF7 | 172
CCCCCCCCCCCCCC(=O)OCC(=O)N1CCN(c2cc3c(cc2F)c(=O)c(C(=O)O)cn3C2CC2)CC1 | MCF7 | 828
CC(C)(C)OC(=O)N1CCN(c2cc3c(cc2F)c(=O)c(C(=O)O)cn3C2CC2)CC1 | MCF7 | 13
CCCCCCCCCCCCOC(=O)N1CCN(c2cc3c(cc2F)c(=O)c(C(=O)O)cn3C2CC2)CC1 | MCF7 | 200
